Target: T1, recombinant human TL1A (human, UniProt O95150 71-251)
T1 construct: Homotrimeric cytokine; biotinylated with Sulfo-NHS-biotin where captured for SPR, coated unlabelled in ELISA, soluble in bioassays; also called TNFSF15
T1 chain: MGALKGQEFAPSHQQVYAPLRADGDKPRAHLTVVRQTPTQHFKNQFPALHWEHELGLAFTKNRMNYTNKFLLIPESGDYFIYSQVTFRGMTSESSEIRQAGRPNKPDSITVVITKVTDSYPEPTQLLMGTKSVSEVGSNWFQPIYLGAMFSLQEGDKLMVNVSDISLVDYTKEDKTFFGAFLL
Experiment: competition ELISA, coated TL1A, competitor bio-TL1A-0002
Measured Bioactivity relative to TL1A-0002 of individual entries
propertyName: Bioactivity relative to TL1A-0002 (fold)

binder	reported
TL1A-0263 (antibody, human IgG1, kappa, V domains shown, human IgG1 effector-function-minimized/kappa) VH: QVQLVQSGAEVKKPGASVKVSCKASGYDYTYYGISWVRQAPGQGLEWMGWISTYNTGTHYAQKLQGRVTMTTDTSTSTAYMELRSLRSDDTAVYYCARESYYGSGAHRGGMDVWGQGTTVTVSS VL: DIQMTQSPSSLSASVGDRVTITCRASQSVSSYLAWYQQKPGKAPKLLIYDASNRATGVPSRFSGSGSGTDFTLTISSLQPEDFATYYCQQRSNWPWTFGQGTKVEIKR	1.2
TL1A-0261 (antibody, human IgG1, kappa, V domains shown, human IgG1 effector-function-minimized/kappa) VH: QVQLVQSGAEVKKPGASVKVSCKASGYDYTYYGISWVRQAPGQGLEWMGWISTYNTGTHYAPSLQGRVTMTTDTSTSTAYMELRSLRSDDTAVYYCARESYYGSGAHRGGMDVWGQGTTVTVSS VL: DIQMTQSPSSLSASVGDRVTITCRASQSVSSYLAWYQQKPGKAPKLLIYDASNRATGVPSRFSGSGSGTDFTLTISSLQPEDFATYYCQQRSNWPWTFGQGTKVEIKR	1.1
TL1A-0294 (antibody, human IgG1, kappa, V domains shown, human IgG1 effector-function-minimized/kappa) VH: QVQLVQSGAEVKKPGASVKVSCKASGYDFTYYGVSWVRQAPGQGLEWMGWISTYNTNTHYAPSLQGRVTMTTDTSTSTAYMELRSLRSDDTAVYYCARESYYGSGAFRGGMDVWGQGTTVTVSS VL: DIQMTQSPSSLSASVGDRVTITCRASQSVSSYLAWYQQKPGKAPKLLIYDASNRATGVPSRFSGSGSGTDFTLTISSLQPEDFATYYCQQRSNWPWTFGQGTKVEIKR	1.6
TL1A-0292 (antibody, human IgG1, kappa, V domains shown, human IgG1 effector-function-minimized/kappa) VH: QVQLVQSGAEVKKPGASVKVSCKASGYDFTYYGVSWVRQAPGQGLEWMGWISTYNTVTHYAPSLQGRVTMTTDTSTSTAYMELRSLRSDDTAVYYCARESYYGSGAFRGGMDVWGQGTTVTVSS VL: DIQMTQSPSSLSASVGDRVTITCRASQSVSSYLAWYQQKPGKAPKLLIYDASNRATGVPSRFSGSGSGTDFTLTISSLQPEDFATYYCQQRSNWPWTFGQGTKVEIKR	1.9
TL1A-0291 (antibody, human IgG1, kappa, V domains shown, human IgG1 effector-function-minimized/kappa) VH: QVQLVQSGAEVKKPGASVKVSCKASGYDFTYYGVSWVRQAPGQGLEWMGWISTYNTGTHYAQKLQGRVTMTTDTSTSTAYMELRSLRSDDTAVYYCARESYYGSGAHRGGMDVWGQGTTVTVSS VL: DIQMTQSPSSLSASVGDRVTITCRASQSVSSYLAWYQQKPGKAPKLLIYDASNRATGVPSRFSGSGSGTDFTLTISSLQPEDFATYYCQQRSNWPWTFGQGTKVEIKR	1.8
TL1A-0280 (antibody, human IgG1, kappa, V domains shown, human IgG1 effector-function-minimized/kappa) VH: QVQLVQSGAEVKKPGASVKVSCKASGYDFSYYGISWVRQAPGQGLEWMGWISTYNTNTHYAPSLQGRVTMTTDTSTSTAYMELRSLRSDDTAVYYCARESYYGSGAFRGGMDVWGQGTTVTVSS VL: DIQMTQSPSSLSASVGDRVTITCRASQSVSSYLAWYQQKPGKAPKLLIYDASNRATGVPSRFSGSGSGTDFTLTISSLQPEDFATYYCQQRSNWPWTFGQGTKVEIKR	1.6
TL1A-0265 (antibody, human IgG1, kappa, V domains shown, human IgG1 effector-function-minimized/kappa) VH: QVQLVQSGAEVKKPGASVKVSCKASGYDYTYYGISWVRQAPGQGLEWMGWISTYNTVTHYAPSLQGRVTMTTDTSTSTAYMELRSLRSDDTAVYYCARESYYGSGAHRGGMDVWGQGTTVTVSS VL: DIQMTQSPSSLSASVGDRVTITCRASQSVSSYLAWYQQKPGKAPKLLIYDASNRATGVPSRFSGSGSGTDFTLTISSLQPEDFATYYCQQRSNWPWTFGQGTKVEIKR	1.7
TL1A-0274 (antibody, human IgG1, kappa, V domains shown, human IgG1 effector-function-minimized/kappa) VH: QVQLVQSGAEVKKPGASVKVSCKASGYDFSYYGISWVRQAPGQGLEWMGWISTYNTGTHYAPSLQGRVTMTTDTSTSTAYMELRSLRSDDTAVYYCARESYYGSGAFRGGMDVWGQGTTVTVSS VL: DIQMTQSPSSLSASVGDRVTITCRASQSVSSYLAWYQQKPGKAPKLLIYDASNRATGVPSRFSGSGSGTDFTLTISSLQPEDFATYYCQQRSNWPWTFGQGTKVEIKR	2
TL1A-0264 (antibody, human IgG1, kappa, V domains shown, human IgG1 effector-function-minimized/kappa) VH: QVQLVQSGAEVKKPGASVKVSCKASGYDYTYYGISWVRQAPGQGLEWMGWISTYNTVTHYAPSLQGRVTMTTDTSTSTAYMELRSLRSDDTAVYYCARESYYGSGAFRGGMDVWGQGTTVTVSS VL: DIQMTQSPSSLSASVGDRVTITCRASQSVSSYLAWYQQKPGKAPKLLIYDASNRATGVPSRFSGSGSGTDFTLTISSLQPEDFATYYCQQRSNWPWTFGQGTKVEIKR	3.1
TL1A-0267 (antibody, human IgG1, kappa, V domains shown, human IgG1 effector-function-minimized/kappa) VH: QVQLVQSGAEVKKPGASVKVSCKASGYDYTYYGISWVRQAPGQGLEWMGWISTYNTNTHYAPSLQGRVTMTTDTSTSTAYMELRSLRSDDTAVYYCARESYYGSGAHRGGMDVWGQGTTVTVSS VL: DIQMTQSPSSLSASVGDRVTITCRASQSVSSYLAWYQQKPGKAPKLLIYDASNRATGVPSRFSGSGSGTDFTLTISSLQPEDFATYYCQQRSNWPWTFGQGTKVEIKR	1.3
